B1: CLCN6 (parent)
chain: FQSISLRKIQFNFPYFRSDRDKRD

Variants of: B1
Experiment: protein stability index of a GFP-peptide fusion (GPS, HEK-293T) (PSI 1-6); higher = more stable;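 note: lentivirally expressed fusions sorted by FACS into six bins by GFP to DsRed ratio, PSI derived from sequencing read proportions per bin multiplied by bin number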
Details: c terminus: a fixed tail appended
Please go through the items and note down their protein stability index.
Lab note: record the figure alone, no unit after it.

In: Requested field: protein stability index. Item: K8H
Out: 2.92

In: K8P ?
Out: 2.92

In: F16H ?
Out: 2.3

In: R23L ?
Out: 1.35

In: I9H ?
Out: 1.83

In: F16I ?
Out: 2.18

In: R7H ?
Out: 2.02

In: K22A ?
Out: 1.29

In: R20S ?
Out: 2.2

In: R17C ?
Out: 1.11

In: Q2R ?
Out: 1.91

In: D19L ?
Out: 1.47

In: S3F ?
Out: 2.58

In: D24F ?
Out: 1.93

In: S5D ?
Out: 1.96

In: S5K ?
Out: 1.7

In: I4Q ?
Out: 1.9

Where do these numbers come from? They come from the supplement of paper PMC10567573.
